target: human thrombin (Homo sapiens, UniProt P00734)
Residues, ends and D or L forms follow the SMILES beside them.
REPORTED_METRIC: log10 of IC50 (log10 of the value in µM)

>  <MOLECULE>
N=C(N)NCCC[C@H](NC(=O)[C@@H]1CCCN1C(=O)[C@H](N)Cc1ccccc1)C(=O)NCC(=O)O [H-D-Phe-Pro-Arg-Gly-OH, reference compound] (HELM PEPTIDE1{[dF].P.R.G}$$$$V2.0)

>  <log10 of IC50>
3.60

$$$$
>  <MOLECULE>
N=C(N)NCCC[C@H](NC(=O)[C@@H]1CCCN1C(=O)[C@H](N)Cc1ccccc1)C(=O)NCC(=O)N[C@@H](Cc1ccccc1)C(=O)N[C@@H](CCCCN)C(=O)O [H-D-Phe-Pro-Arg-Gly-Phe-Lys-OH] (HELM PEPTIDE1{[dF].P.R.G.F.K}$$$$V2.0)

>  <log10 of IC50>
2.40

$$$$
>  <MOLECULE>
N=C(N)NCCC[C@H](NC(=O)[C@@H]1CCCN1C(=O)[C@H](N)Cc1ccccc1)C(=O)CCC(=O)N[C@@H](Cc1ccccc1)C(=O)O [H-D-Phe-Pro-Arg-psi[COCH2 ]-Gly-Phe-OH]

>  <log10 of IC50>
1.57

$$$$
>  <MOLECULE>
C[C@H](NC(=O)[C@H](CCCNC(=N)N)NC(=O)[C@@H]1CCCN1C(=O)[C@H](N)Cc1ccccc1)C(=O)N[C@@H](Cc1ccccc1)C(=O)N[C@@H](CCCCN)C(=O)O [H-D-Phe-Pro-Arg-Ala-Phe-Lys-OH] (HELM PEPTIDE1{[dF].P.R.A.F.K}$$$$V2.0)

>  <log10 of IC50>
2.04

$$$$
>  <MOLECULE>
N=C(N)NCCC[C@H](NC(=O)[C@@H]1CCCN1C(=O)[C@H](N)Cc1ccccc1)C(=O)NCC(=O)N[C@@H](Cc1ccccc1)C(=O)O [H-D-Phe-Pro-Arg-Gly-Phe-OH] (HELM PEPTIDE1{[dF].P.R.G.F}$$$$V2.0)

>  <log10 of IC50>
2.61

$$$$
